System: ACHN
protocol-details: minimum viability across doses, drug + dasatinib, relative to DMSO (fraction); higher = less growth inhibition
condition-label: treatment: drug + dasatinib (fixed dose, not stated); 5 days
Parameter class (string): assigned from measured minimum viability across doses. Ranges: lower band = under 0.05, central band = from 0.05 up to 0.2, upper band = 0.2 and over

compound | assigned-category
Cc1csc(-c2nnc(Nc3ccc(Oc4ncccc4-c4ccnc(N)n4)cc3)c3ccccc23)c1 [AMG 900] + Cc1nc(Nc2ncc(C(=O)Nc3c(C)cccc3Cl)s2)cc(N2CCN(CCO)CC2)n1 | central band
CC(O)C(=O)O.CC(O)C(=O)O.CN1CCN(c2ccc3nc(-c4c(N)c5c(F)cccc5[nH]c4=O)[nH]c3c2)CC1 [Dovitinib Dilactic acid (TKI258 Dilactic acid)] + Cc1nc(Nc2ncc(C(=O)Nc3c(C)cccc3Cl)s2)cc(N2CCN(CCO)CC2)n1 | central band
CC(=O)c1c(C)c2cnc(Nc3ccc(N4CCNCC4)cn3)nc2n(C2CCCC2)c1=O.Cl + Cc1nc(Nc2ncc(C(=O)Nc3c(C)cccc3Cl)s2)cc(N2CCN(CCO)CC2)n1 | central band
O=C1c2ccccc2-c2n[nH]c3cccc1c23 + Cc1nc(Nc2ncc(C(=O)Nc3c(C)cccc3Cl)s2)cc(N2CCN(CCO)CC2)n1 | upper band
CN1CCN(c2ccc3nc(-c4c(N)c5c(F)cccc5[nH]c4=O)[nH]c3c2)CC1 [Dovitinib (TKI-258)] + Cc1nc(Nc2ncc(C(=O)Nc3c(C)cccc3Cl)s2)cc(N2CCN(CCO)CC2)n1 | central band
COc1cc2c(Nc3ccc(Br)cc3F)ncnc2cc1OCC1CCN(C)CC1 [Vandetanib (Zactima)] + Cc1nc(Nc2ncc(C(=O)Nc3c(C)cccc3Cl)s2)cc(N2CCN(CCO)CC2)n1 | central band
Nc1nc(N)c2nc(-c3cccc(O)c3)c(-c3cccc(O)c3)nc2n1 [TG100-115] + Cc1nc(Nc2ncc(C(=O)Nc3c(C)cccc3Cl)s2)cc(N2CCN(CCO)CC2)n1 | upper band
COc1cc2ncnc(Nc3ccc(F)c(Cl)c3)c2cc1NC(=O)/C=C/CN1CCCCC1 + Cc1nc(Nc2ncc(C(=O)Nc3c(C)cccc3Cl)s2)cc(N2CCN(CCO)CC2)n1 | lower band
CCS(=O)(=O)N1CC(CC#N)(n2cc(-c3ncnc4[nH]ccc34)cn2)C1 + Cc1nc(Nc2ncc(C(=O)Nc3c(C)cccc3Cl)s2)cc(N2CCN(CCO)CC2)n1 | upper band
O=c1cc(N2CCOCC2)oc2c(-c3cccc4c3sc3ccccc34)cccc12 + Cc1nc(Nc2ncc(C(=O)Nc3c(C)cccc3Cl)s2)cc(N2CCN(CCO)CC2)n1 | central band
Cc1cc(CN2CCN(c3c(Br)cnc4[nH]c(-c5ccc(N6CCN(C)CC6)cc5)nc34)CC2)no1 + Cc1nc(Nc2ncc(C(=O)Nc3c(C)cccc3Cl)s2)cc(N2CCN(CCO)CC2)n1 | lower band
COc1cc2nccc(Oc3ccc(NC(=O)Nc4cc(C)on4)c(Cl)c3)c2cc1OC [Tivozanib (AV-951)] + Cc1nc(Nc2ncc(C(=O)Nc3c(C)cccc3Cl)s2)cc(N2CCN(CCO)CC2)n1 | central band
Cn1cnc(N)c2ncnc1-2 [3-Methyladenine] + Cc1nc(Nc2ncc(C(=O)Nc3c(C)cccc3Cl)s2)cc(N2CCN(CCO)CC2)n1 | upper band
Cc1n[nH]c2ccc(-c3cncc(OC[C@@H](N)Cc4ccccc4)c3)cc12 + Cc1nc(Nc2ncc(C(=O)Nc3c(C)cccc3Cl)s2)cc(N2CCN(CCO)CC2)n1 | lower band
CCN(CCO)CCCOc1ccc2c(Nc3cc(CC(=O)Nc4cccc(F)c4)n[nH]3)ncnc2c1 [Barasertib (AZD1152-HQPA)] + Cc1nc(Nc2ncc(C(=O)Nc3c(C)cccc3Cl)s2)cc(N2CCN(CCO)CC2)n1 | upper band
O=c1[nH]c2ccc(Cl)cc2c(N[C@@H]2CN3CCC2CC3)c1-c1nc2ccccc2[nH]1 [CHIR-124] + Cc1nc(Nc2ncc(C(=O)Nc3c(C)cccc3Cl)s2)cc(N2CCN(CCO)CC2)n1 | lower band
CCN1CCN(Cc2ccc(-c3cc4c(N[C@H](C)c5ccccc5)ncnc4[nH]3)cc2)CC1 [AEE788 (NVP-AEE788)] + Cc1nc(Nc2ncc(C(=O)Nc3c(C)cccc3Cl)s2)cc(N2CCN(CCO)CC2)n1 | lower band
C=CC(=O)Nc1cccc(Oc2nc(Nc3ccc(N4CCN(C)CC4)cc3)ncc2Cl)c1 [WZ3146] + Cc1nc(Nc2ncc(C(=O)Nc3c(C)cccc3Cl)s2)cc(N2CCN(CCO)CC2)n1 | lower band
